measurement_protocol: yeast display, Sf9 membrane polyspecificity reagent, FACS + sequencing; frameworks hold sequencing errors

| biopolymer_sequence | polyreactivity (PSR sort gate) |
| --- | --- |
| QVQLVESGGGLVQAGGSLRLSCAASGNTFGNYGMGWYRQAPGKEREFVAAITSRGTSTYYADSVKGRFTISRDNAKNTVYLQMNSLKPEDTAVYYCNARPRYKYPRYDYWVQGTQVTVSS | high polyreactivity |
| QVQLVESGGGLVQAGGSLSLSCAASGSIFDVNAMGWYRQAPGKERELVAAISDSGGSTYYADSVKGRFTISRDNAKNTVHLQMNSLKAEDTAVYYCNADWSWYNYYDFDYWGQGTQVTVSS | low polyreactivity |
| QVQLVESGGGLVQAGGSLRLSCAASGSTFSEYVMGWYRQAPGKERELVAAIRSNGGSTYYADSVKGRFTISRDNAKNTVYLQMNSLKPEDTAVYYCNRVYSRRTYNSPLYDYWGQGTQVTVSS | high polyreactivity |
| QVQLVESGGGLVQAGGSLRLSCAASGSIFFSYAMGWYRQARGKERELVAAISTSGGNTYYADSVKGRFTISRDNAKNTVYLQMNSLKPEDTAVYYCNALYIYFYNYLTMDYWGQGTQVTVSS | low polyreactivity |
| QVQLVESGGGLVQAGGSLRLSCAASGFTFVYYAMGWYRQAPGKERELVATISGNGGRTYYADSVKGRFTISRDNAKNTVYLQMNSLKPEDTAVYYCAADVVTYLSYTLDYWGQGTQVTVSS | low polyreactivity |
| QVQLVESGGALVQAGGSLRLSCAASGIIFTPYAMGWYRQAPGKERQLLAAISWSGGRTYYADSVKGRFTISRDNAKNTVYLQMNSLKPEATAVYYCNARRYWWPHYYEYDYWGQGTHVTVSS | high polyreactivity |
| QVQLVESGGGLVQAGGSLRLSCAASRRIFLWYAMGWYRQAPGKERELVASITRSGVTTYYADSVKGRFTISRDKAKNTVYLQMNSLKPEDTAVYYCNKDFRGDAIKLDVNYWGQGTQVTVSS | low polyreactivity |
| QVQLVESGGGLVQAGGSLRLSCAASGRIFTFNAMGWYRQAPGKERELVAAINSGGSRTYYADSVKGRFTISRDNAKNTVYLQMNSLKPEDTAVYYCAAGYSGWVRSSSPFYYWGQGTQVTVSS | high polyreactivity |
| QVQLVESGGGLVQAGGSLRLSCAASGRTFFYYAMGWYRQAPGKDRELVAAISWGGGRTYYADSVKGRFTISRDNAKNTVYLQMNSLKPEETAVYYCAAGVYTGQHEYDYWGQGTQVTVSS | low polyreactivity |
| KVQLVESGGGLVQAGGSLRLSCAASGSTFAGNALGWYRKAPGKERELVAAIDSSTGSTYYADSVKGRFTISRDNAKNTVYLQMNSLKPEDTAVYYCNKTSLLVKLDYWGPGTQVTVSS | low polyreactivity |
| QVQLVESGGGLVQAGCSLRLSCAASGFTFFRNAMGWYRQAPGKERELVAAISGSGGSTYYADSVKGRFTISRDNAKNTVYLQMNSLKPEDTAVYYCATYSYPAKVREAYNYWGQGTQVTVSS | low polyreactivity |

----------
measurement_protocol: yeast display, Sf9 membrane polyspecificity reagent, FACS + sequencing; frameworks hold sequencing errors
outcome_measure: polyreactivity (PSR sort gate)

| biopolymer_sequence | observed_measurement |
| --- | --- |
| QVQLVESGGGLVQAGGSLRLSCAAYGSNFTSNAMGWYRQAPGKERELVAVITIGGSTNYADSVKGRFTISRDNAKNTVYLQMNSLKPEDTAVYYCAADDDYSRILQGDQSDDYWGQGSQVTVSS | low polyreactivity |
| QVQLVESGGGLVQAGGSLRLSCAASGRTSEFNAMGWYRQAPGKERELVAAITDGGNTNYADSVKGRFTISRDNAKNTVYLQMNSLKPEDTAVYYCAAERYTWWGFDYDYWGQGTQVTVSS | high polyreactivity |
| QVQLVESGGGLVQAGGSLRLSCAASGFIFRPYAMGWYRQAPGKERELVAAISFSGGSTYYADSVKGRFTISRDNAKNTVYLQMNSLIPEDTAVYYCAAVYYFSYWLGPDDYWGQGTQVTVSS | low polyreactivity |
| QVQLVESGGGLFQAGGSLRLSCAASGIIFQRNDMGWYRQAPGKERELVANIRDGGITYADSVKGRFTISRDNAKNTVYLQMNSLKPEDTAVYYCARDDTSPGYCDQSSNAAYYYWGQGTQVTVSS | low polyreactivity |
| QVQHVESGGGLVQAGGSLRLSCAASGLIFSKNVMGWYRQARGKEREFVAAISQRGGSTYYADSVKGRFTISRDNAKNTVYVQMNSLKPEDTAVYYCAADNTVSHEDFWGQGTQVTVSS | high polyreactivity |
| QVPLVESGGGLVQAGGRLRLSCAASGSTLLNSPMGWYRKAPGKERELVAAISSSGGRTYYPDSVKGRFTISRDNAKNTVYLQMNSLTPEDTEVYYCNKVLGYPKTFGYWGQGTQVSVSS | high polyreactivity |
| QVQLVESGGGVVQAGGSLGLSCAASGRLFGYYAMGWYRQAPGKERELGAAINYSGGSTYYADSVKGRFTISRDNAKNTVYLQMNSLKPEDTAVYYCNAVRYTLLYYWGQGTQVTVSS | high polyreactivity |
| QVQLVESGGGLVQAGGSLRLSCAASGRIIRINAMGWYRQAPGKERELVATISRSGGRTYYADSVKGRFTISRDNAKNTVYLQMNSLKPEDTAVYYCNADHFYYSSQYGYWGQGTQVTVSS | high polyreactivity |
| QVQLVESGGGLVQAGGSLRLSCAASGFIFYPNAMGWYRQAPGKERELVAGISWSGTSTYYADSVKGRFTISRDNAKNTVYLQMNSLKPEDTAVYYCNRVFYHFDVDRYDYWGQGTQVTVSS | low polyreactivity |
| QVQLVESGGGLVQAGGSLRLSCAASGFTFVPYAMGWYRQAPGKERETNADSVKGRFTISRDNAKNTVYLQRNSLKPEDTAVYYCAADVWASRRYDYWGQGTQVTVSS | low polyreactivity |
| QVQLVESGGLLVQAGGSLRLRGAASGSTIPRNAMGWYRQAPGKERELVASITSDGGSTYYADSVKGRFTISRDNAQITVYLQMNSLNPEDTAVYYFNAYTRYGLFAYDYWGQGTQVTVSS | high polyreactivity |

----------
measurement_protocol: yeast display, Sf9 membrane polyspecificity reagent, FACS + sequencing; frameworks hold sequencing errors

| biopolymer_sequence | polyreactivity (PSR sort gate) |
| --- | --- |
| QEQLQESGGGLVQAGGSLRLSCAAIGSNIPTIYMGWYRHAPGKEREFVAAIGKGCSTYYADSVKGRFTISRDNALKTVYLQMNSLIPEDNAVYYCAFDPYASQDLAYWGQGTLVTVSS | low polyreactivity |
| QVQLVESGGGLVQAGGSLRLSCAASGSTFGWYTMGWYRQAPGKERELVAAINYSGGSTYYADSVKGRFTISRDNAKNTVYLQMISLKPEDTAVYYCAADGTWSIYGGLYYWGQGTQVTVSS | low polyreactivity |
| QVQLVESGGGLVQAGGSLRLSCAASGFIFNSYAMGGYRQAPGKERELVAAISRRGSSTYYADSVKGRFTISRDNAKNTVYLQMKSLKPEDTAVYYCAKRDLSTSWYLRDYWGQGTQVTVSS | high polyreactivity |
| QVHLVESGGGLVQAGGSLRLSCAASGRTFSRYAMGWYRQAPGKERELVAGISLSGTSTYYADSVKGRFTISRDNAKNTVYLQMNSLIPVVTAVYYCATYSSYIPYGFDYWGQGTQVTVSS | high polyreactivity |
| QVQLVESGGGLVQAGGSLRLSCAASGRIFSLNVMGWYRPAPGKERELVATIRGRGTSTYYADSVKGRFTISRDNAKNTVYLQMNSLKPEDTAVYYCAARGHGAYGYWGQGTQVTVSS | low polyreactivity |

----------
measurement_protocol: yeast display, Sf9 membrane polyspecificity reagent, FACS + sequencing; frameworks hold sequencing errors
outcome_measure: polyreactivity (PSR sort gate)

| biopolymer_sequence | observed_measurement |
| --- | --- |
| QVQLVESGGGLVQAGGSLRLSCAASGGIFDGNAMGWYRQAPGKERELVAAISSGGITKYADSEKGRFTISRDNAKNTVYLQMNSLKPEDTAVYYCAASWYRYRFIRYDYWGQGTQVTVSS | high polyreactivity |
| QVQIVESGGGLVQAGGSLRLSSAASGITFRHYAMGWYRQAPGKERELVAAITSRGGSTYYADSVKGRFTISRDNAKNTVYLQMNSLKPEDTAVYYCAKGTVHSRPDFGRGWYRWDDYWGQGSQVTVSS | high polyreactivity |
| QVQLVESGGGLVQAGGSLRLSCAASGSTLVGNTMGWYRQAPGKERELVAAITGVGSRNYADSVKGRFTISRDNAKNTVYLQMNSLKPEDTALYYCAAETWYSVLWEEGYDYWGHGTQVTVSS | low polyreactivity |
| QDQLVESGGGLVQAGGSLRLSCAASGRTFTYYAMGWYRQAPGKDRELDAGISSGGGSTYYADSVKGRFTISRDHAKNTVYLQMNSLKPEDTAVYYCATAKRQGGYSEYDYWGQGTQVTVSS | high polyreactivity |
| QVQLVESGGGLVQAGGSLRLSCAASGFIFGVYAMGWYRQAPGKERELVAAISRSGGSTYYADSVKGRFTISRDNAKNTVYLQMNSLKPEDTAVYYCATQVSWYGKGYYYWGQGTQVTVSS | high polyreactivity |
| QVQLVESGGGLVQAGGSLRLSCAASVSTFYGYAMGWYRQAPGKERELVAAITSTVITDYADSVKGRFTISRDNAKNTVYLQMNSLKPEDTAVYYCSADRYDSSQFYYWGQGTQVTVSS | low polyreactivity |
| QVQLVESGGGLVQAGGSLRLSCAASGLIYFYAMGWYRQAPGKERELVAAISSTGGRTYYADSVKGRFTIARDNAKNTVYLQMNSVKPEDTAVYYCNVLVYNVYTRGYYSYKYYFWGQGTQVTVSS | high polyreactivity |
| QVQLVESGGGLVQAGGSLRLSCAASGFIFLAYAMGWYRQAPGKERELVAAISSGSSTSYADSVKGRFTISRDNAKNTVYLQMNSLKPEDTAVYYCNAVPSFANLTWESYDYWGQGTQVTVSS | low polyreactivity |
| QVRRVESGGGLVQAGGSLRLSCAASGSTFPWYAMGWYRQAPGTERELVASITSGTTTNYADSVKGRFTISRDNAKNTVYLEMNSLKPEDTAVYYCAASWVYPYDYWGQGTQVTVSS | low polyreactivity |
| QVQLVESAAGLVQAGASLRLSCAPSGSIFSGNALGWSRQAPGKARELVAAISQNGGRTYYADSVKGRFTISRDYAKNTVYLQMNILKPDDTAVYYCAALAVRFYSSYDYWGQGTQVTVSS | high polyreactivity |
| QVQLVESGGGLVQAGGSLRLSCAASGFTFVSNDMGWYRQAPGKERELVAAIRYRGGDTYYADSVKGRFTISRDNAKNTVYLQMNRLKPEDTAVYYCAVDVATYTAGWYYHGYDYWGQGTQVTVSS | low polyreactivity |
| QVQLVESGGGLVQAGGSLRLSCAASGYISFGYAMGWYRQAPGKEREFVAAISVGGGTTYYADSVKGRFTISRDNAKNTVYLQMNSLKPEDTAVYYCAARSYSYAPRRGYWGQGTQVTVSS | high polyreactivity |
| QVQLVESGGGLVQAGGSLRLSCAASGITFYYYAMGWYRQAPGKLRELVARINSGGSTNYADSVKGRFTISRDNAKNTVYLQMNSLKPEDTAVYYCNAKFRFGTYKTPYDYWGQGTQVTVSS | low polyreactivity |
| QVQLVESGGGLVQAGGSLRLSCAASGITFAYNAMGWYRQEPGKERELVARITSGGRTYYADSVKGRFTISRDNAKNTVYLQMNSLKPEDTAVYYCATPYTSYLYGYDYWGQGTQVTVSS | low polyreactivity |
| QVQLVESGGGLVQAGGSLRLSCAASGGIFGRNAMGWYRQAPGKEMELVAAISSSGGTTYYADSVKGRFTISRDYAKNTVYLQMNSMKPEDTAVYYCNAAYYWRSFHDDYFGQGTQVTVSS | high polyreactivity |
| QVQLVESGGGLVQAGGSLRLSCAASGRTFYLNAMGWYRQAPGKERELVAAITSSGGRTYYADSVKGRFTISRDNAKNTVYLQMNSLKPEDTAVYYCAAVVSSKPSFYWGQGTQVTVSS | low polyreactivity |
| QVQLVESGGGLVQAGGSLRLSCAASGSTLYVNAMGCYIQAPGKERELVAAISSGGGRTYYADSVKGRFTISRDNAKNTVYLQMNSLKPEETAVYYCARKPYYPYDYWGQGTLVTVSS | low polyreactivity |
| QVQLVESGGGLVQAGGSLRLSCAASGFTFSYYPMGWYRLAPGKERELVAAITSGGSTYYADSVKGRFTISRDNAKNTVYLQMNSLKPEDTAVYYCNARGYGTLNVRRERMDYWGQGTQVTVSS | high polyreactivity |
| QVQLVESGGGLVQAGGSLRLSCAASGGIFEANVMGWYRQAPGKERELVAAITSGGSTNYADSVKGRFTISRDNAKNTVYLQMNSLKPEDTAVYYCAADRPDGWVDYWGQGTQVTVSS | low polyreactivity |
| QVQLVESGGGLVQAGGSLRLSCAASGRTFSYYTMGWYRQAPGKERELVARISNRGTNTYYADSVKGRFTISRDNAKNTVYLQMNSLKPEDTAVYYCAATQPYWWAYRYDYWGQGTQVTVSS | low polyreactivity |
| QVQLVESGGGLVQAGGSLRLSCAASGSTFGYYSMGWYRQAPGKERELVAAIRYSGGTTYYADSVKGRYTISRDNAKNTVYLQMNSLKPEDTAVYYCAAVYTSGYYYWGQGTQVTVSS | high polyreactivity |
